pIC50 values by entry
Test system: OVCAR-4
Experiment: Cytotoxicity against human OVCAR-4 cells assessed as cell growth inhibition
Assay type: functional, cell-based
pIC50: −log10 of the molar value.
EXPERIMENTAL ENDPOINT: pIC50

- SMILES: "O=C(Nc1ccc(OS(=O)(=O)c2ccccc2)cc1)C12CC3CC(CC(C3)C1)C2"
  EXPERIMENTAL RESULT: 5.08
- SMILES: "O=C(Nc1ccc(OS(=O)(=O)c2ccc(F)cc2)cc1)C12CC3CC(CC(C3)C1)C2"
  EXPERIMENTAL RESULT: 5.79
- SMILES: "O=c1[nH]cc(F)c(=O)[nH]1"
  EXPERIMENTAL RESULT: 5.35

###

The following compounds are listed with their measured IC50 values.
Target: Autotaxin (Homo sapiens)
Assay: Inhibition of human NPP2 expressed in COS-7 cells using pNP-TMP as substrate preincubated for 10 mins followed by substrate addition and measured after 35 mins by microplate reader analysis
EXPERIMENTAL ENDPOINT: IC50 (nM)

- SMILES: "O=C(Nc1ccc(OS(=O)(=O)c2ccc(F)cc2)cc1)C12CC3CC(CC(C3)C1)C2"
  EXPERIMENTAL RESULT: 1070
- SMILES: "O=C(Nc1ccc(OS(=O)(=O)c2ccccc2)cc1)C12CC3CC(CC(C3)C1)C2"
  EXPERIMENTAL RESULT: 1350

###

Test system: HCT-15
Assay: Cytotoxicity against human HCT-15 cells assessed as cell growth inhibition
Format: functional, cell-based
pIC50: −log10 of the molar value.
EXPERIMENTAL ENDPOINT: pIC50

- SMILES: "O=C(Nc1ccc(OS(=O)(=O)c2ccc(F)cc2)cc1)C12CC3CC(CC(C3)C1)C2"
  EXPERIMENTAL RESULT: 6.38
- SMILES: "O=c1[nH]cc(F)c(=O)[nH]1"
  EXPERIMENTAL RESULT: 6.96
- SMILES: "O=C(Nc1ccc(OS(=O)(=O)c2ccccc2)cc1)C12CC3CC(CC(C3)C1)C2"
  EXPERIMENTAL RESULT: 6.00

###

System: HT-29
Experiment: Cytotoxicity against human HT-29 cells assessed as cell growth inhibition
Assay type: functional, cell-based
pIC50: −log10 of the molar value.
EXPERIMENTAL ENDPOINT: pIC50

- SMILES: "O=C(Nc1ccc(OS(=O)(=O)c2ccc(F)cc2)cc1)C12CC3CC(CC(C3)C1)C2"
  EXPERIMENTAL TARGET: "HT-29"
  EXPERIMENTAL RESULT: 6.70
- SMILES: "O=c1[nH]cc(F)c(=O)[nH]1"
  EXPERIMENTAL TARGET: "HT-29"
  EXPERIMENTAL RESULT: 6.77
- SMILES: "O=C(Nc1ccc(OS(=O)(=O)c2ccccc2)cc1)C12CC3CC(CC(C3)C1)C2"
  EXPERIMENTAL TARGET: "HT-29"
  EXPERIMENTAL RESULT: 6.40

###

System: CCRF-CEM
Assay: Cytotoxicity against human CCRF-CEM cells assessed as cell growth inhibition
Type: functional, cell-based
pIC50: −log10 of the molar value.
In this section we review reported pIC50 values for a set of molecules.
EXPERIMENTAL ENDPOINT: pIC50

- SMILES: "O=c1[nH]cc(F)c(=O)[nH]1"
  EXPERIMENTAL ENDPOINT: "pIC50"
  EXPERIMENTAL RESULT: 5.00
- SMILES: "O=C(Nc1ccc(OS(=O)(=O)c2ccc(F)cc2)cc1)C12CC3CC(CC(C3)C1)C2"
  EXPERIMENTAL ENDPOINT: "pIC50"
  EXPERIMENTAL RESULT: 5.43

###

Assay: Cytotoxicity against human F180 cells assessed as cell growth inhibition
Type: toxicity, cell-based

- SMILES: "COc1cccc2c1C(=O)c1c(O)c3c(c(O)c1C2=O)C[C@@](O)(C(=O)CO)C[C@@H]3O[C@H]1C[C@H](N)[C@H](O)[C@H](C)O1"
  IC50, µM: 0.14

###

Tested on: SK-MEL-28
Assay: Cytotoxicity against human SK-MEL-28 cells assessed as cell growth inhibition
Assay type: functional, cell-based
pIC50: −log10 of the molar value.
# key: entry, value: pIC50
EXPERIMENTAL ENDPOINT: pIC50

- SMILES: "O=C(Nc1ccc(OS(=O)(=O)c2ccccc2)cc1)C12CC3CC(CC(C3)C1)C2"
  RELATIONAL OPERATOR: "<"
  EXPERIMENTAL RESULT: 4.00
- SMILES: "O=c1[nH]cc(F)c(=O)[nH]1"
  RELATIONAL OPERATOR: "="
  EXPERIMENTAL RESULT: 5.99
- SMILES: "O=C(Nc1ccc(OS(=O)(=O)c2ccc(F)cc2)cc1)C12CC3CC(CC(C3)C1)C2"
  RELATIONAL OPERATOR: "="
  EXPERIMENTAL RESULT: 4.54

###

Test system: PC-3
Experiment: Cytotoxicity against human PC-3 cells assessed as cell growth inhibition
Assay type: functional, cell-based
pIC50: −log10 of the molar value.
The entries below are paired with their reported pIC50.

- SMILES: "O=C(Nc1ccc(OS(=O)(=O)c2ccccc2)cc1)C12CC3CC(CC(C3)C1)C2"
  pIC50: 5.54
- SMILES: "O=c1[nH]cc(F)c(=O)[nH]1"
  pIC50: 5.63
- SMILES: "O=C(Nc1ccc(OS(=O)(=O)c2ccc(F)cc2)cc1)C12CC3CC(CC(C3)C1)C2"
  pIC50: 6.31

###

Each entry below carries its recorded IC50.
Tested on: UO-31
Assay: Cytotoxicity against human UO-31 cells assessed as cell growth inhibition
Format: functional, cell-based

- SMILES: "O=c1[nH]cc(F)c(=O)[nH]1"
  EXPERIMENTAL TARGET: "UO-31"
  IC50 / µM: 1.42
- SMILES: "O=C(Nc1ccc(OS(=O)(=O)c2ccc(F)cc2)cc1)C12CC3CC(CC(C3)C1)C2"
  EXPERIMENTAL TARGET: "UO-31"
  IC50 / µM: 3.43
- SMILES: "O=C(Nc1ccc(OS(=O)(=O)c2ccccc2)cc1)C12CC3CC(CC(C3)C1)C2"
  EXPERIMENTAL TARGET: "UO-31"
  IC50 / µM: 18.7

###

Test: Cytotoxicity against human hTERT-HME1 cells assessed as cell growth inhibition
Format: toxicity, cell-based
Below: a set of entries, each annotated with reported IC50.

- COMPOUND: "COc1cccc2c1C(=O)c1c(O)c3c(c(O)c1C2=O)C[C@@](O)(C(=O)CO)C[C@@H]3O[C@H]1C[C@H](N)[C@H](O)[C@H](C)O1 [DOXORUBICIN]"
  IC50: "0.77 µM"
- COMPOUND: "O=C(Nc1ccc(OS(=O)(=O)c2ccc(F)cc2)cc1)C12CC3CC(CC(C3)C1)C2"
  IC50: "> 50 µM"
- COMPOUND: "O=C(Nc1ccc(OS(=O)(=O)c2ccccc2)cc1)C12CC3CC(CC(C3)C1)C2"
  IC50: "> 50 µM"

###

Molecular target: Carbonic anhydrase 12 (Homo sapiens)
Sequence (O43570 whole entry): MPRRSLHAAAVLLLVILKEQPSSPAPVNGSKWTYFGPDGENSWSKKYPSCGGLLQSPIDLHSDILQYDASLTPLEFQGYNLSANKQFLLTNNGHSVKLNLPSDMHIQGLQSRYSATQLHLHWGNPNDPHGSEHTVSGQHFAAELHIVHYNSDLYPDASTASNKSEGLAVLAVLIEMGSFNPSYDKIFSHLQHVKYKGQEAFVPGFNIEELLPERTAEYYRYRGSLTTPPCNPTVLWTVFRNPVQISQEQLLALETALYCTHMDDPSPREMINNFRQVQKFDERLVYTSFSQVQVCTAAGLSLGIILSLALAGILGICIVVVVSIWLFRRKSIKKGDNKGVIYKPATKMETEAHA

- SMILES: "O=C(Nc1ccc(OS(=O)(=O)c2ccc(F)cc2)cc1)C12CC3CC(CC(C3)C1)C2"
  EXPERIMENTAL TARGET: "Carbonic anhydrase 12 (Homo sapiens)"
  IC50, µM: 0.68
